Overview of reported normalized growth across a group of compounds:
PROTOCOL SUMMARY: chemical genetic growth profiling, strain panel (AID 1159580);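 also: tested at 20 µM; growth read once vehicle control cultures reached saturation at 30 °C; 1 = growth at the plate median or of vehicle wells; lower values mean less growth of the strain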
MEASUREMENT SETUP: S. cerevisiae deletion strains, growth OD, locus YER155C, strain BEM2, active compounds read low
The campaign covered roughly 5,500 compounds. About 2,000 (36%) were called active. Another 18% or so got no clear call; they are omitted. The list shows a part of the results.
Form rule: numeric answer, no unit written next to it.

What the record says about CN1CCN2c3ccccc3Cc3ccccc3C2C1 (stereo unspecified) : normalized growth is 1.01

What the record says about O=c1oc2ccccc2c(O)c1Cc1c(O)c2ccccc2oc1=O : normalized growth is 0.984

What the record says about CN1CCc2c(c3ccccc3n2Cc2ccccc2)C1 : normalized growth is 1.02

What the record says about CCC/C=C/C=C/[C@@H]1C[C@@H](O)[C@@H](O)C(=O)[C@H]1C=O : normalized growth is 0.955

What the record says about O=C(/C=C/c1ccccc1)c1ccc(O)cc1 : normalized growth is 0.568

What the record says about O=c1c2ccccc2oc2ccc(O)cc12 : normalized growth is 0.978

What the record says about COc1cccc2c1cc([N+](=O)[O-])c1c(C(=O)O)cc3c(c12)OCO3 : normalized growth is 1.01

What the record says about CC(C)Oc1ccc2c(=O)cc(-c3ccccc3)oc2c1 : normalized growth is 0.85

What the record says about CSc1ccc2c(c1)C(N1CCN(C)CC1)Cc1ccccc1S2 (stereo unspecified) : normalized growth is 1.02

What the record says about COC(=O)C[C@H]1C(C)(C)C(=O)[C@@H]2CC3=C4CC(OC)O[C@@H](c5ccoc5)[C@]4(C)CCC3[C@@]1(C)C2=O (stereo partly specified) : normalized growth is 1.01

What the record says about CCC(CCC(C)[C@H]1CCC2C3CC=C4C[C@@H](O)CC[C@]4(C)C3CC[C@@]21C)C(C)C (stereo partly specified) : normalized growth is 0.982

What the record says about Nc1nc(N)c2nc(-c3ccccc3)c(N)nc2n1 : normalized growth is 1.01

What the record says about CCC(/C=C/[C@@H](C)[C@H]1CCC2C3CC=C4C[C@@H](O)CC[C@]4(C)C3CC[C@@]21C)C(C)C (stereo partly specified) : normalized growth is 0.986

What the record says about ClC(Cl)=C(c1ccc(Cl)cc1)c1ccc(Cl)cc1 : normalized growth is 0.927

What the record says about CC1=NCCc2c1[nH]c1cc(O)ccc21 : normalized growth is 1.01

What the record says about C=CCCCCCCCCCCCC(O)CC(O)CO (stereo unspecified) (tested in a mixture with another compound) : normalized growth is 0.0936

What the record says about COc1cc([C@@H]2c3cc4c(cc3C(O[C@@H]3O[C@@H]5CO[C@@H](c6cccs6)OC5[C@H](O)[C@H]3O)C3COC(=O)[C@@H]32)OCO4)cc(OC)c1O (stereo partly specified) : normalized growth is 1

What the record says about COc1ccc(-c2cc(=O)c3ccccc3o2)cc1 : normalized growth is 0.734

What the record says about O=C(O)/C=C(\CC(=O)O)C(=O)O : normalized growth is 0.989

What the record says about COc1cc([C@@H]2c3cc4c(cc3[C@H](O)[C@H]3COC(=O)[C@@H]23)OCO4)cc(OC)c1OC : normalized growth is 0.986

What the record says about CC(=O)CC(c1ccccc1)c1c(O)c2ccccc2oc1=O (stereo unspecified) : normalized growth is 1

====

PROTOCOL SUMMARY: chemical genetic growth profiling, strain panel (AID 1159580)
MEASUREMENT SETUP: S. cerevisiae deletion strains, growth OD, locus YEL061C, strain CIN8, active compounds read low
Among all 5,500 compounds or so, about 2,000 (36%) were called active. Not shown: some 18% with an inconclusive outcome. Some of the results follow.
Overview of reported normalized growth across a group of compounds:

Here are 4 compounds together with their reported answers.
[[record]]
compound = "CCCCCn1c(Sc2ncc([N+](=O)[O-])s2)n[nH]c1=O"
property = "normalized growth"
measured_result = "0.0768 (active)"

[[record]]
compound = "Cc1coc2ccccc2c1=O"
property = "normalized growth"
measured_result = "1 (inactive)"

[[record]]
compound = "CC(C)Oc1ccc2c(=O)cc(-c3ccccc3)oc2c1"
property = "normalized growth"
measured_result = "0.923 (active)"

[[record]]
compound = "O=C(O)c1coc2ccccc2c1=O"
property = "normalized growth"
measured_result = "1.02 (inactive)"


What the record says about C=CCn1c(Sc2ncc([N+](=O)[O-])s2)n[nH]c1=O : normalized growth is 0.858 (active)

====

PROTOCOL SUMMARY: chemical genetic growth profiling, strain panel (AID 1159580);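 also: tested at 20 µM; growth read once vehicle control cultures reached saturation at 30 °C; 1 = growth at the plate median or of vehicle wells; lower values mean less growth of the strain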
MEASUREMENT SETUP: S. cerevisiae deletion strains, growth OD, locus YNR030W, strain Alg12, active compounds read low
Hit rate of the full screen: of about 5,500 compounds, about 2,000 (36%) were called active. Not shown: some 18% with an inconclusive outcome. Some of the results follow.
PROPERTY: normalized growth
Form rule: numeric answer, no unit written next to it.

Here are 8 compounds together with their reported answers.
[[record]]
compound = "CC(C)(C)C(=O)N1CCN(c2ncccc2C(F)(F)F)CC1"
property = "normalized growth"
measured_result = 0.963

[[record]]
compound = "CCN1CN=C(SCc2ccc(C)cc2)NC1"
property = "normalized growth"
measured_result = 0.986

[[record]]
compound = "Cc1onc(-c2c(Cl)cccc2Cl)c1C(=O)N1CCN(c2ncccc2C(F)(F)F)CC1"
property = "normalized growth"
measured_result = 0.966

[[record]]
compound = "O=C(NNC(=O)c1ccccc1[N+](=O)[O-])c1ccc(Cl)cc1"
property = "normalized growth"
measured_result = 1.03

[[record]]
compound = "CC(=O)c1csc(-c2ccc(C(F)(F)F)cc2)n1"
property = "normalized growth"
measured_result = 0.943

[[record]]
compound = "O=C(Nc1ccccc1SCc1cccc(C(F)(F)F)c1)c1c(F)cccc1Cl"
property = "normalized growth"
measured_result = 0.984

[[record]]
compound = "CSC(=NCc1cccnc1)NC#N"
property = "normalized growth"
measured_result = 1

[[record]]
compound = "O=C1CCCc2c1nc(-c1ccccc1)n2O"
property = "normalized growth"
measured_result = 1.01


Query compound follows.
What the record says about N#CC1COc2ccccc2O1 (stereo not drawn) : normalized growth is 1.01

====

Overview of reported normalized growth across a group of molecules:
PROTOCOL SUMMARY: chemical genetic growth profiling, strain panel (AID 1159580);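 also: tested at 20 µM; growth read once vehicle control cultures reached saturation at 30 °C; 1 = growth at the plate median or of vehicle wells; lower values mean less growth of the strain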
MEASUREMENT SETUP: S. cerevisiae deletion strains, growth OD, locus YNL207W, strain RIO2, active compounds read low
Hit rate of the full screen: of about 5,500 compounds, about 2,000 (36%) were called active. Roughly 18% stayed inconclusive and do not appear here. The list shows a part of the results.
Form rule: numeric answer, no unit written next to it.

[[record]]
structure_smiles = "CC(C)(C)c1csc(NNC(=O)c2ccc(Cl)cc2)n1"
property = "normalized growth"
measured_result = 0.96

[[record]]
structure_smiles = "C/C(=N/Nc1nc(C(C)(C)C)cs1)c1ccc(Cl)c(Cl)c1"
property = "normalized growth"
measured_result = 0.976

[[record]]
structure_smiles = "CN(C(=O)N(C)c1ccc(Cl)cc1C(=O)c1ccccc1Cl)c1ccc(Cl)cc1C(=O)c1ccccc1Cl"
property = "normalized growth"
measured_result = 0.825

[[record]]
structure_smiles = "Cc1cc(C(=O)O/N=C(/N)CSc2ncccc2C(F)(F)F)no1"
property = "normalized growth"
measured_result = 0.997

[[record]]
structure_smiles = "Fc1ccc(N/N=C\\Cc2nnnn2-c2ccccc2)c(F)c1"
property = "normalized growth"
measured_result = 0.952

[[record]]
structure_smiles = "CC(C)c1ccc(-c2cc(=O)c3ccccc3o2)cc1"
property = "normalized growth"
measured_result = 0.924

[[record]]
structure_smiles = "O=C1Nc2ccccc2/C1=N/N=C\\c1ccccc1Cl"
property = "normalized growth"
measured_result = 0.974

[[record]]
structure_smiles = "CC(C)(C)c1csc(NC(=O)Nc2ccc(Cl)cc2)n1"
property = "normalized growth"
measured_result = 0.97


What the record says about N#Cc1c(Br)cnn1Cc1cc(C(F)(F)F)cc(C(F)(F)F)c1 : normalized growth is 0.99

What the record says about O=C(NNC(=O)c1csc(-c2cccs2)n1)c1ccc(C(F)(F)F)cc1 : normalized growth is 0.955

What the record says about N#CCC(=O)c1cccc(CSc2ccccc2Cl)c1 : normalized growth is 0.966

====

PROTOCOL SUMMARY: chemical genetic growth profiling, strain panel (AID 1159580);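 also: tested at 20 µM; growth read once vehicle control cultures reached saturation at 30 °C; 1 = growth at the plate median or of vehicle wells; lower values mean less growth of the strain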
MEASUREMENT SETUP: S. cerevisiae deletion strains, growth OD, locus YGL173C, strain kem1, active compounds read low
The whole screen tested about 5,500 compounds, of which about 2,000 (36%) were called active. Another 18% or so got no clear call; they are omitted. Some of the results follow.
Overview of reported normalized growth across a group of molecules:
Form rule: numeric answer, no unit written next to it.

Here are 3 molecules together with their reported answers.
[[record]]
molecule = "CN(C)CCC=C1c2ccccc2C=Cc2ccccc21"
measured_result = 1

[[record]]
molecule = "Nc1nc(N)c2nc(-c3ccccc3)c(N)nc2n1"
measured_result = 1

[[record]]
molecule = "C=CCCCCCCCCCCCC(O)CC(O)CO (configuration not stated)"
measured_result = 0.996


What the record says about C=C1C(N)CC2CC1C2(C)C (configuration not stated) : normalized growth is 0.998

What the record says about CN(C)CC/C=C1/c2ccccc2COc2ccccc21 : normalized growth is 1.03

What the record says about CCCCCCCCCCCCCCCC[n+]1ccccc1 : normalized growth is 0.0629

What the record says about O=c1c2ccccc2[se]n1-c1ccccc1 : normalized growth is 0.0711
